Every entry's value here was drawn from paper PMC10744196.

TGT: CrufCSP1
EXPERIMENT: Fluorescence competitive binding assay with 1-NPN as probe
Set-up: species or system Cotesia ruficrus
CONDITION CONTEXT: calculated from IC50: Ki=[IC50]/(1+[1-NPN]/K1-NPN); CrufCSP1 2 μM, 1-NPN 2 μM
Please respond with rule met when measured Ki is strictly beneath 20 µM, and with rule not met in all other cases.

Reference set, count: 3
| COMPOUND | ASSIGNED CLASS |
| --- | --- |
| CCCCCCCCCCCCCCCC(=O)O [Palmitic acid] | rule not met |
| CCCCCCCCC=O [Nonanal] | rule not met |
| CCCCC(C)O (stereo not drawn) [2-Hexanol] | rule not met |

Does CCCCCCCC(=O)N(C)C [N,N-Dimethylcaprylamide] have Ki strictly under 20 µM?
rule met

Confirm or reject: Ki of CC/C=C\CCO [cis-3-Hexen-1-ol] lies strictly below 20 µM
rule not met

Check if Ki falls below 20 µM for CCCCCCCCCCCO [Undecanol] .
rule not met

For this compound, is Ki lower than 20 µM? CCCCCC=O [Hexanal]
rule met

Please state whether Ki is below 20 µM for CCCCCCCCCCCC=O [Dodecanal]
rule not met

In plain terms, does CCCCCC(C)=O [2-Heptanone] come in under 20 µM for Ki?
rule not met

Given CC/C=C\CCOC(C)=O [cis-3-Hexenyl acetate] , is recorded Ki strictly lower than 20 µM?
rule not met
